Tested on: NTS
Procedure details: Speed-of-action assay in NTS
Assay type: cell-based, Schistosoma mansoni
Experimental parameters: NTS, 48 h, 20 μM
Item-by-item account of Percentage of effect
Write the value in % as a bare number.

Look up Percentage of effect: Cl.NC1CC1c1ccc(NC(=O)c2ccc(C#CC3CC3)cc2)cc1 (centres unmarked) [Compound 19]
100

Another molecule to check: CC#Cc1ccc(C(=O)Nc2ccc(C3CC3N)cc2)cc1.Cl (centres unmarked) [Compound 18]
87.76

Another molecule to check: C#Cc1ccc(C(=O)Nc2ccc(C3CC3N)cc2)cc1 (centres unmarked) [MC3935, reference compound]
57.14

Another molecule to check: NC1CC1c1ccc(NC(=O)c2ccc(-c3ccccc3)cc2)cc1 (centres unmarked) [Compound 2]
93.88

Another molecule to check: CCCc1ccc(C(=O)Nc2ccc(C3CC3N)cc2)cc1.Cl (centres unmarked) [Compound 15]
91.84

###

Tested on: NTS
Procedure details: Speed-of-action assay in NTS
Format: cell-based, Schistosoma mansoni
Experimental parameters: Schistosoma mansoni, 48 h; read-out: IC50 (speed of action, NTS)
Endpoint: pIC50
Please note pIC50 is a logarithmic value: minus log10 of concentration in mol/L. Answer with that number alone.

As a guide, the following entries are already answered.
[[record]]
compound = "CC#Cc1ccc(C(=O)Nc2ccc(C3CC3N)cc2)cc1.Cl (stereo not drawn)"
measured_on = "NTS"
endpoint = "pIC50"
value_observed = 5.36

[[record]]
compound = "CCCc1ccc(C(=O)Nc2ccc(C3CC3N)cc2)cc1.Cl (stereo not drawn)"
measured_on = "NTS"
endpoint = "pIC50"
value_observed = 5.00


Next up:
Look up pIC50: Cl.NC1CC1c1ccc(NC(=O)c2ccc(C#CC3CC3)cc2)cc1 (stereo not drawn)
5.08

###

Tested on: newly transformed schistosomula (NTS)
Procedure details: NTS viability phenotypic screening, 72 h
Experimental parameters: 10 μM
Endpoint: Percentage of reduction of NTS viability, 72 h (%)
Write the value in % as a bare number.

[[record]]
molecule = "Cl.NC1CC1c1ccc(NC(=O)c2ccc(C#CC3CC3)cc2)cc1 (centres unmarked)"
value_observed = 100

[[record]]
molecule = "NC1CC1c1ccc(NC(=O)C(Cc2c[nH]c3ccccc23)NC(=O)OCc2ccccc2)cc1 (centres unmarked)"
value_observed = 41.4

[[record]]
molecule = "NC1CC1c1ccc(NC(=O)C2CCCN2C(=O)OCc2ccccc2)cc1 (centres unmarked)"
value_observed = 32.8

[[record]]
molecule = "NC1CC1c1ccc(NC(=O)C(Cc2csc3ccccc23)NC(=O)OCc2ccccc2)cc1 (centres unmarked)"
value_observed = 36.2

[[record]]
molecule = "C#Cc1ccc(C(=O)Nc2ccc(C3CC3N)cc2)cc1 (centres unmarked) [MC3935, reference compound]"
value_observed = 45.5


Next up:
Look up Percentage of reduction of NTS viability, 72 h: NC1CC1c1ccc(NC(=O)c2ccc(-c3ccsc3)cc2)cc1 (centres unmarked)
43.1

###

Procedure details: MTT cytotoxicity in MRC-5 cells
Format: cell-based
Experimental parameters: human, MRC-5 lung diploid fibroblast cells, 5 μM, read-out: percentage of viability, 72 h
One threshold, 80%, splits the recorded viability at 72 h, 5 µM values: lower ones are MET, equal or higher ones are NOT MET.

Record C#Cc1ccc(C(=O)Nc2ccc(C3CC3N)cc2)cc1 (stereo not drawn) [MC3935, reference compound] : is its viability at 72 h, 5 µM strictly below 80%?
NOT MET

Another compound to check: CN1CCN(c2cc(C(=O)Nc3ccc(C4CC4N)cc3)ccc2NC(=O)OCc2ccccc2)CC1 (stereo not drawn)
MET

Another compound to check: Cl.NC1CC1c1ccc(NC(=O)c2ccc(C#CC3CC3)cc2)cc1 (stereo not drawn)
NOT MET

Another compound to check: NC1CC1c1ccc(NC(=O)c2ccc(-c3ccccc3)cc2)cc1 (stereo not drawn)
MET

Another compound to check: CC#Cc1ccc(C(=O)Nc2ccc(C3CC3N)cc2)cc1.Cl (stereo not drawn)
NOT MET
